Data provenance is patent US9708383.

target: T1, human GLP-1 receptor (human, UniProt P43220 24-463); test: SPA, displacement of 125I-GLP-1(7-36)NH2, 0.005% HSA
T1 construct: whole, on cells; Used as purified membranes of the transfected hamster cells, not whole cells; also called hGLP-1
pIC50: −log10 of the molar value. *1 amine or outer side, *2 acyl side, *3 side chain or, on linkers, in order; H or OH if unused. Where no end group is shown, it is not given here. Side-chain parts run from the residue outwards. [ ]: non-standard residue; d: D form. The star is where a group is joined. Decanoyl(10-(4-HOOC-PhO)) = O=C(O)c1ccc(OCCCCCCCCCC(=O)*)cc1; γGlu = O=C(O)[C@H](CCC(=O)[*:2])N[*:1]; Desaminohistidyl = O=C(CCc1c[nH]cn1)*; Butanoyl(4-Ph) = O=C(CCCc1ccccc1)*; AEEA = NCCOCCOCC(=O)O; Ahx = NCCCCCC(=O)O
reported metric: pIC50

## Input Data request, read-out pIC50, for HAEGTFTSDVSK([AEEA-AEEA-γGlu-Ahx-γGlu-Butanoyl(4-Ph)])YLEGQAAK([AEEA-AEEA-γGlu-Ahx-γGlu-Butanoyl(4-Ph)])EFIAWLVRGRG [GLP-1 derivative of Example 110: [Lys18,Arg34]-GLP-1-(7-37)-peptide]
## Output > 6.00

## Input Data request, read-out pIC50, for [Desaminohistidyl]AEGTFTSDVSK([AEEA-AEEA-γGlu-Decanoyl(10-(4-HOOC-PhO))])YLEEQAAREFIAWLVRGRK([AEEA-AEEA-γGlu-Decanoyl(10-(4-HOOC-PhO))]) [GLP-1 derivative of Example 4: [Imp7,Lys18,Glu22,Arg26,Arg34,Lys37]-GLP-1-(7-37)-peptide]
## Output > 6.00
